// data source = ChEMBL document CHEMBL1914316

experiment: Drug uptake in C57BL/6 mouse liver at 10 mg/kg, po after 6 hrs; format: ADME, organism-based, C57BL6; set-up: dose 10 mg/kg, route oral; conditions: read-out: Drug uptake
recorded_endpoint: concentration at 6 h (nM)

In the examples that follow, each entry is paired with its recorded concentration at 6 h.
O=C(O)Cn1nnc(-c2cncc(-c3cn(Cc4cc(Br)c(Br)c(Br)c4)nn3)c2)n1 = 470
NC(=O)c1cn(Cc2cc(Br)c(Br)c(Br)c2)nn1 = 2690

[P] O=C(O)Cn1nnc(-c2cnc(-c3cn(Cc4cc(Cl)c(Cl)c(Cl)c4)nn3)s2)n1
[Q] O=C(O)Cn1nnc(-c2cc(-c3cn(Cc4cc(Br)c(Br)c(Br)c4)nn3)no2)n1
[in] # query: argmin of concentration at 6 h over P and Q Label of pick, please.
[out] P
(P: 330 nM, Q: 1660 nM)
